Reference source: the supplement of paper PMC12042874

- test: amyloid nucleation score (Sup35N fusion, yeast selection) (log enrichment); library NNK1; higher = more nucleation; inactive = no reads after selection;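 note: zero at mode of non-aggregating sequences after 7 days selection at 30°C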
What amyloid nucleation score was measured for each of the following?
Response field accepts a number only; no unit should be typed.

Request: I would be grateful if you could share the reported amyloid nucleation score for MCFLLSYLRWLDYYSYVVVC .
Result: 0.962

Request: I would be grateful if you could share the reported amyloid nucleation score for KFSSKFTSG .
Result: 0.436

Request: I would be grateful if you could share the reported amyloid nucleation score for TSSVEVNPERVITISGTVS .
Result: -0.018

Request: I would be grateful if you could share the reported amyloid nucleation score for PLAAYCSVDYGQKIQIATVP .
Result: -0.541

Request: I would be grateful if you could share the reported amyloid nucleation score for AWQRVSVKFELGDIGPEGLY .
Result: -0.668

Request: I would be grateful if you could share the reported amyloid nucleation score for PDMCQERNYCELYPCKARAT .
Result: -0.612

Request: I would be grateful if you could share the reported amyloid nucleation score for VKVGVCGSVGWLHTGVQSNG .
Result: 0.804

Request: I would be grateful if you could share the reported amyloid nucleation score for TNGNGFIRRFTRAYFFT .
Result: -0.338

Request: I would be grateful if you could share the reported amyloid nucleation score for FGSMLNGVRYQ .
Result: 0.747

Request: I would be grateful if you could share the reported amyloid nucleation score for GFISIGP .
Result: -0.068

Request: I would be grateful if you could share the reported amyloid nucleation score for CIYELRGLVRFWSHRVNRER .
Result: -0.445

Request: I would be grateful if you could share the reported amyloid nucleation score for FQGMYWNGFSSSSMSAATPR .
Result: 0.157

Request: I would be grateful if you could share the reported amyloid nucleation score for KKRSFLGYFVSLAFYNCYQY .
Result: 2.73

Request: I would be grateful if you could share the reported amyloid nucleation score for WPIRVMMGYRLLGMDRNVFG .
Result: 0.129

Request: I would be grateful if you could share the reported amyloid nucleation score for VRFWTLEFSPVRFSS .
Result: -1.11

Request: I would be grateful if you could share the reported amyloid nucleation score for PDSTVARVDVSPELIFCLKS .
Result: -0.708
